measured on: NHBANg (Neisseria gonorrhoeae, UniProt B4RQT3)
test name: SPR analysis of glycan binding
experimental setup: single cycle kinetics, immobilised NHBANg; read-out: KD
measured parameter: pKd
Would you please state pKd, meaning minus log10 of the concentration in mol/L, as a bare number?

INPUT: Could you share what pKd was measured for CC(=O)N[C@H]1C(O)O[C@H](CO)[C@@H](O[C@@H]2O[C@H](CO)[C@H](O)[C@H](O)[C@H]2O)[C@@H]1O[C@@H]1O[C@@H](C)[C@@H](O)[C@@H](O)[C@@H]1O (stereo partly shown) , tested on NHBANg (Neisseria gonorrhoeae, UniProt B4RQT3)?
OUTPUT: 6.17
